- protocol-details: TIMS collisional cross section (CCS, N2) of the lipid ion; higher = larger ion cross section
- measurement-conditions: sample type: Liver; ionization mode: positive; one isomer drawn
Please use TRUE whenever TIMS collisional cross section is not below 300 Å², and FALSE whenever it is.

molecule="CCCCCCCCCCCCCCCCCC(=O)OC[C@@H](COC(=O)CCCCCCCCCCCCCCC)OC(=O)CCCCCCCCCCCCCCCC [TG 16:0_17:0_18:0] (ion (formula + adduct): [C54H104O6+NH4] 1+)" assigned_class=TRUE
molecule="CC/C=C\\C/C=C\\C/C=C\\C/C=C\\C/C=C\\CCCC(=O)OC[C@H](COP(=O)(O)OCCN)OC(=O)CCCCCCCCCCCCCCCCC [PE 20:5_18:0] (ion (formula + adduct): [C43H76NO8P+H] 1+)" assigned_class=FALSE
molecule="CCCCCCCCCCCCCCCC(=O)OC[C@@H](O)COP(=O)(O)OCCN [LPE 16:0] (ion (formula + adduct): [C21H44NO7P+H] 1+)" assigned_class=FALSE
molecule="CCCCCCCC/C=C\\CCCCCCCCCC(=O)OC[C@@H](COC(=O)CCCCCCC/C=C\\CCCCCCCC)OC(=O)CCCCCCCCCCCCCCCCCC [TG 18:1_19:0_20:1] (ion (formula + adduct): [C60H112O6+NH4] 1+)" assigned_class=TRUE
molecule="CCCCC/C=C\\C/C=C\\CCCCCCCC(=O)OC[C@@H](COC(=O)CCCCCCC/C=C\\CCCCCC)OC(=O)CCCCCCC/C=C\\CCCCCC [TG 16:1_16:1_18:2] (ion (formula + adduct): [C53H94O6+NH4] 1+)" assigned_class=TRUE

====

- protocol-details: TIMS collisional cross section (CCS, N2) of the lipid ion; higher = larger ion cross section
- measurement-conditions: sample type: plasma; ionization mode: positive; one isomer drawn
value-type: TIMS collisional cross section (Å²)

compound="CCCCC/C=C\\C/C=C\\C/C=C\\CCCCC(=O)OC[C@@H](O)COP(=O)(O)OCCN [LPE 18:3] (ion (formula + adduct): [C23H42NO7P+H] 1+)" unit_annotation=Å² experimental_result=208.3
compound="CCCCC/C=C\\C/C=C\\C/C=C\\C/C=C\\CCCC(=O)OC[C@@H](O)COP(=O)([O-])OCC[N+](C)(C)C [LPC 20:4] (ion (formula + adduct): [C28H50NO7P+H] 1+)" unit_annotation=Å² experimental_result=231.65
compound="CCCCC/C=C\\C/C=C\\CCCCCCCC(=O)OC[C@@H](O)COP(=O)(O)OCCN [LPE 18:2] (ion (formula + adduct): [C23H44NO7P+H] 1+)" unit_annotation=Å² experimental_result=214.1
compound="CC/C=C\\C/C=C\\C/C=C\\C/C=C\\C/C=C\\CCCCCC(=O)OC[C@@H](COC(=O)CCCCCCC/C=C\\CCCCCC)OC(=O)CCCCCCC/C=C\\CCCCCCCC [TG 16:1_18:1_22:5] (ion (formula + adduct): [C59H100O6+NH4] 1+)" unit_annotation=Å² experimental_result=327.7
compound="CC/C=C/C/C=C/C/C=C/C/C=C/C/C=C/C/C=C/CCC(=O)O[C@H](COC(=O)CCCCCCCCCCCCCCC)COP(=O)([O-])OCC[N+](C)(C)C [PC 16:0_22:6] (ion (formula + adduct): [C46H80NO8P+H] 1+)" unit_annotation=Å² experimental_result=292

====

- protocol-details: TIMS collisional cross section (CCS, N2) of the lipid ion; higher = larger ion cross section
- measurement-conditions: sample type: HeLa; ionization mode: positive; one isomer drawn
value-type: TIMS collisional cross section (Å²)

compound="CCCCC/C=C\\C/C=C\\C/C=C\\C/C=C\\C/C=C\\CCC(=O)OC[C@@H](O)COP(=O)(O)OCCN [LPE 22:5] (ion (formula + adduct): [C27H46NO7P+H] 1+)" value_type="TIMS collisional cross section" experimental_result=220.9
compound="CCCC/C=C\\CCCCCCCC(=O)OC[C@H](COC(=O)CCCCCCC/C=C\\CCCCCC)OC(=O)CCCCCCCCCCCCCCC [TG 14:1_16:0_16:1] (ion (formula + adduct): [C49H90O6+NH4] 1+)" value_type="TIMS collisional cross section" experimental_result=303.9
compound="CCCCCCCC/C=C\\CCCCCCCC(=O)OC[C@@H](O)COP(=O)(O)OCCN [LPE 18:1] (ion (formula + adduct): [C23H46NO7P+H] 1+)" value_type="TIMS collisional cross section" experimental_result=216.4
compound="CCCCCCCC/C=C\\CCCCCCCC(=O)O[C@H](COC(=O)CCCCCCCCCCCCCCC)COP(=O)([O-])OCC[N+](C)(C)C [PC 16:0@_18:1] (ion (formula + adduct): [C42H82NO8P+H] 1+)" value_type="TIMS collisional cross section" experimental_result=289.15
compound="CCCCCCCCC/C=C\\CCCCCCCC(=O)O[C@H](CO/C=C\\CCCCCCCCCCCCCC)COP(=O)(O)OCCN [PE P- 16:0@_19:1] (ion (formula + adduct): [C40H78NO7P+H] 1+)" value_type="TIMS collisional cross section" experimental_result=277.5

====

TIMS collisional cross section values by entry
- protocol-details: TIMS collisional cross section (CCS, N2) of the lipid ion; higher = larger ion cross section
- measurement-conditions: sample type: Liver; ionization mode: positive; one isomer drawn
value-type: TIMS collisional cross section (Å²)

compound="CCCCCCCC/C=C\\CCCCCCCC(=O)OC[C@@H](COC(=O)CCCCCCCCCCCCC)OC(=O)CCCCCCCCCCCCCCC [TG 14:0_16:0_18:1] (ion (formula + adduct): [C51H96O6+NH4] 1+)" experimental_result=312.4
compound="CCCCC/C=C\\CCCCCCCC(=O)OC[C@H](COC(=O)CCCCCCC/C=C\\CCCCCCCC)OC(=O)CCCCCCC/C=C\\CCCCCC [TG 15:1_16:1_18:1] (ion (formula + adduct): [C52H94O6+NH4] 1+)" experimental_result=312.2
compound="CCCCC/C=C\\C/C=C\\CCCCCCCC(=O)O[C@H](COC(=O)CCCCCCCCCCCCCC)COP(=O)([O-])OCC[N+](C)(C)C [PC 15:0@_18:2] (ion (formula + adduct): [C41H78NO8P+H] 1+)" experimental_result=281
compound="CC/C=C\\C/C=C\\C/C=C\\CCCCCCCC(=O)OC[C@@H](COC(=O)CCCCCCC/C=C\\CCCCCC)OC(=O)CCCCCCC/C=C\\C/C=C\\CCCCC [TG 16:1_18:2_18:3] (ion (formula + adduct): [C55H94O6+NH4] 1+)" experimental_result=312.8

====

TIMS collisional cross section values by entry
- protocol-details: TIMS collisional cross section (CCS, N2) of the lipid ion; higher = larger ion cross section
- measurement-conditions: sample type: HeLa; ionization mode: positive; one isomer drawn
value-type: TIMS collisional cross section (Å²)

molecule="CCCCCCCCCCCCCCCCCCOC[C@@H](O)COP(=O)([O-])OCC[N+](C)(C)C [LPC O- 18:0] (ion (formula + adduct): [C26H56NO6P+H] 1+)" value_type="TIMS collisional cross section" unit_annotation=Å² experimental_result=238.4
molecule="CC/C=C\\C/C=C\\C/C=C\\C/C=C\\C/C=C\\C/C=C\\CCC(=O)OC[C@@H](COC(=O)CCCCCCCCCCCCC)OC(=O)CCCCCCCCCCCCCCC [TG 14:0_16:0_22:6] (ion (formula + adduct): [C55H94O6+NH4] 1+)" value_type="TIMS collisional cross section" unit_annotation=Å² experimental_result=317.6
molecule="CCCCCCCCCCCCCCCCC(=O)OC[C@@H](COC(=O)CCCCCCCCCCCCCCC)OC(=O)CCCCCCCCCCCCCCC [TG 16:0_16:0_17:0] (ion (formula + adduct): [C52H100O6+NH4] 1+)" value_type="TIMS collisional cross section" unit_annotation=Å² experimental_result=317.5

====

TIMS collisional cross section values by entry
- protocol-details: TIMS collisional cross section (CCS, N2) of the lipid ion; higher = larger ion cross section
- measurement-conditions: sample type: Liver; ionization mode: positive; one isomer drawn
value-type: TIMS collisional cross section (Å²)

molecule="CCCC/C=C\\CCCCCCCC(=O)O[C@@H](COC(=O)CCCCCCC/C=C\\CCCCCC)COC(=O)CCCCCCCCCCCC [TG 13:0_14:1_16:1] (ion (formula + adduct): [C46H84O6+NH4] 1+)" value_type="TIMS collisional cross section" experimental_result=291.9
molecule="CCCCC/C=C\\C[C@H](O)/C=C/C=C\\C/C=C\\CCCC(=O)O[C@H](COC(=O)CCCCCCCCCCCCCCC)COP(=O)([O-])OCC[N+](C)(C)C [Oxidized PC 16:0_20:4@] (ion (formula + adduct): [C44H80NO9P+H] 1+)" value_type="TIMS collisional cross section" experimental_result=290.3
molecule="CCCCC/C=C\\C/C=C\\C/C=C\\C/C=C\\CCCC(=O)O[C@H](COC(=O)CCCCCCC/C=C\\C/C=C\\CCCCC)COP(=O)([O-])OCC[N+](C)(C)C [PC 18:2@_20:4] (ion (formula + adduct): [C46H80NO8P+H] 1+)" value_type="TIMS collisional cross section" experimental_result=290.9
molecule="CCCCCC/C=C/CCCCCCCCCC(=O)OC[C@H](CO)OC(=O)CCCCCCCCCCCCCCC [DG 18:1_16:0_0:0] (ion (formula + adduct): [C37H70O5+NH4] 1+)" value_type="TIMS collisional cross section" experimental_result=262.85
molecule="CCCCCCCC/C=C\\CCCCCCCC(=O)OC[C@H](CO)OC(=O)CCCCCCC/C=C\\CCCCCCCC [DG 18:1_18:1_0:0] (ion (formula + adduct): [C39H72O5+NH4] 1+)" value_type="TIMS collisional cross section" experimental_result=265.5
molecule="CCCCCCC/C=C\\CCCCCCCC(=O)OC[C@H](COC(=O)CCCCCCCCCCCCCCCCCC)OC(=O)CCCCCCC/C=C\\CCCCCCCC [TG 17:1_18:1_19:0] (ion (formula + adduct): [C57H106O6+NH4] 1+)" value_type="TIMS collisional cross section" experimental_result=328.8
molecule="CCCCCCCC/C=C\\CCCCCCCC(=O)OC[C@@H](COC(=O)CCCCCCCCCCCCC)OC(=O)CCCCCCC/C=C\\CCCCCCCC [TG 14:0_18:1_18:1] (ion (formula + adduct): [C53H98O6+NH4] 1+)" value_type="TIMS collisional cross section" experimental_result=315.3
molecule="CCCCCCCCCCCCCCCCCCCCCC(=O)OC[C@@H](COC(=O)CCCCCCCCCCCCCCCCC)OC(=O)CCCCCCCCCCCCCCCCCCCC [TG 18:0_21:0_22:0] (ion (formula + adduct): [C64H124O6+NH4] 1+)" value_type="TIMS collisional cross section" experimental_result=351.7
molecule="CCCCCCCC/C=C\\CCCCCCCCCCCC(=O)OC[C@@H](COC(=O)CCCCCCC/C=C\\CCCCCCCC)OC(=O)CCCCCCCCC/C=C\\CCCCCCCC [TG 18:1_20:1_22:1] (ion (formula + adduct): [C63H116O6+NH4] 1+)" value_type="TIMS collisional cross section" experimental_result=342.9
molecule="CCCCCCCCCCCCCCCC(=O)OC[C@H](COP(=O)([O-])OCC[N+](C)(C)C)OC(=O)CCCC=O [Oxidized PC 16:0_5:0@] (ion (formula + adduct): [C29H56NO9P+H] 1+)" value_type="TIMS collisional cross section" experimental_result=245.3
molecule="CCCCC/C=C\\C/C=C\\C/C=C\\C/C=C\\CCCC(=O)O[C@@H](CO)COC(=O)CCCCCCC/C=C\\CCCCCCCC [DG 18:1_20:4_0:0] (ion (formula + adduct): [C41H70O5+NH4] 1+)" value_type="TIMS collisional cross section" experimental_result=266
molecule="CCCCC/C=C\\C/C=C\\C/C=C\\C/C=C\\CCCC(=O)OC[C@@H](COC(=O)CCCCCCCCCCCCCCCC)OC(=O)CCCCCCC/C=C\\C/C=C\\CCCCC [TG 17:0_18:2_20:4] (ion (formula + adduct): [C58H100O6+NH4] 1+)" value_type="TIMS collisional cross section" experimental_result=326.4
molecule="CC/C=C\\C/C=C\\C/C=C\\C/C=C\\CCCCC(=O)OC[C@@H](COC(=O)CCCCCCC/C=C\\C/C=C\\CCCCC)OC(=O)CCCC/C=C\\C/C=C\\C/C=C\\CCCCC [TG 18:2_18:3_18:4] (ion (formula + adduct): [C57H92O6+NH4] 1+)" value_type="TIMS collisional cross section" experimental_result=314.3
molecule="CCCCCC/C=C\\CCCCCCCC(=O)OC[C@H](COP(=O)(O)OCCN)OC(=O)CCCCCCCCCCCCCCC [PE 16:1@_16:0] (ion (formula + adduct): [C37H72NO8P+H] 1+)" value_type="TIMS collisional cross section" experimental_result=268.7
molecule="CC/C=C\\C/C=C\\C/C=C\\CCCCCCCC(=O)O[C@H](COC(=O)CCCCCCCCCCCCC)COP(=O)([O-])OCC[N+](C)(C)C [PC 14:0@_18:3] (ion (formula + adduct): [C40H74NO8P+H] 1+)" value_type="TIMS collisional cross section" experimental_result=277.5
molecule="CCCCCCCCCCCCCCCCCCCCCCCC(=O)OC[C@@H](O)COP(=O)([O-])OCC[N+](C)(C)C [LPC 24:0] (ion (formula + adduct): [C32H66NO7P+H] 1+)" value_type="TIMS collisional cross section" experimental_result=258.9
molecule="CC/C=C\\C/C=C\\C/C=C\\C/C=C\\C/C=C\\C/C=C\\CCC(=O)O[C@H](COC(=O)CCCCCCC/C=C\\C/C=C\\CCCCC)COP(=O)([O-])OCC[N+](C)(C)C [PC 18:2_22:6] (ion (formula + adduct): [C48H80NO8P+H] 1+)" value_type="TIMS collisional cross section" experimental_result=292.5
